experiment: 17O NMR of Gd complexes (water exchange, SBM fitting); format: physicochemical; set-up: unit not given here; conditions: best-fit, 17O NMR; scalar coupling constant
MEASURED ENDPOINT: A/ℏ

INSERT INTO results (mol, measured_endpoint, value_reported) VALUES
  ('O=C(O)CN1CCN(CCC(=O)NCCN(Cc2ccccn2)Cc2ccccn2)CCN(CC(=O)O)CCN(CC(=O)O)CC1', 'A/ℏ', '−3.7'),
  ('O=C(O)CN1CCN(CC(=O)O)CCN(CC(=O)NCCN(CCc2ccccn2)Cc2ccccn2)CCN(CC(=O)O)CC1', 'A/ℏ', '−4.0'),
  ('O=C(O)CN1CCN(CC(=O)O)CCN(CC(=O)NCCN(Cc2ccccn2)Cc2ccccn2)CCN(CC(=O)O)CC1', 'A/ℏ', '−4.0'),
  ('O=C(O)CN1CCN(CCC(=O)NCCN(CCc2ccccn2)Cc2ccccn2)CCN(CC(=O)O)CCN(CC(=O)O)CC1', 'A/ℏ', '−3.9'),
  ('O=C(O)CCN1CCN(CC(=O)O)CCN(CC(=O)NCCN(Cc2ccccn2)Cc2ccccn2)CCN(CC(=O)O)CC1', 'A/ℏ', '−3.7');

###

assay: 17O NMR of Gd complexes (water exchange, SBM fitting); type: physicochemical; conditions: best-fit, 17O NMR; sometimes fixed
MEASURED ENDPOINT: τV^298 (ps)

Answered cases to consult:
INSERT INTO measurements (mol, value_reported) VALUES
  ('O=C(O)CCN1CCN(CC(=O)O)CCN(CC(=O)NCCN(Cc2ccccn2)Cc2ccccn2)CCN(CC(=O)O)CC1', 7.1),
  ('O=C(O)CN1CCN(CC(=O)O)CCN(CC(=O)NCCN(Cc2ccccn2)Cc2ccccn2)CCN(CC(=O)O)CC1', 4.6),
  ('O=C(O)CN1CCN(CCC(=O)NCCN(CCc2ccccn2)Cc2ccccn2)CCN(CC(=O)O)CCN(CC(=O)O)CC1', 14);

1. O=C(O)CN1CCN(CC(=O)O)CCN(CC(=O)NCCN(CCc2ccccn2)Cc2ccccn2)CCN(CC(=O)O)CC1
2. O=C(O)CN1CCN(CCC(=O)NCCN(Cc2ccccn2)Cc2ccccn2)CCN(CC(=O)O)CCN(CC(=O)O)CC1
IN: Consider 1 and 2 . Which of these has its τV^298 at a higher number? I would appreciate it if you answered with the label of your choice.
OUT: 1

###

target: HSA (Homo sapiens, UniProt P02768); construct: purchased Sigma-Aldrich; assay: Proton relaxation enhancement (PRE) titrations with HSA; assay type: binding; conditions: fitting proton relaxation enhancement data to equation (1); 20 MHz, 310 K; read-out: KD(GdLZnHSA)
Sequence (P02768 25-609): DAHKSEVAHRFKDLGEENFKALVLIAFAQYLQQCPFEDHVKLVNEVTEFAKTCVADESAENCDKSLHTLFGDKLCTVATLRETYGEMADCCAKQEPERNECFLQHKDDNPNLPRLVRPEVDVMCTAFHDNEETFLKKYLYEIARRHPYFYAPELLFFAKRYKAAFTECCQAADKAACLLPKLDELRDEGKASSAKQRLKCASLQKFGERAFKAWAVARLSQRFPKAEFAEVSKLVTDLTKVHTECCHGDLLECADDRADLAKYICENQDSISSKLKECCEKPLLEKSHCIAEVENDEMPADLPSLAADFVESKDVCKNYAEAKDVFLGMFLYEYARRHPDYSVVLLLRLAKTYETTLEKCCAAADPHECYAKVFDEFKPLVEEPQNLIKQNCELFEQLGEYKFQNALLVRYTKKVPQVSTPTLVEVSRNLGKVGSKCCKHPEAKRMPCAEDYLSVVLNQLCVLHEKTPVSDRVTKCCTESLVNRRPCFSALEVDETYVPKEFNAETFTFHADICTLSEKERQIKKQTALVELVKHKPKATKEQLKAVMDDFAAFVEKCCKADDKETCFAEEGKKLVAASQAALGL
MEASURED ENDPOINT: Kd (µM)

INSERT INTO assay_data (compound, measured_endpoint, value_reported) VALUES
  ('O=C(O)CCN1CCN(CC(=O)O)CCN(CC(=O)NCCN(Cc2ccccn2)Cc2ccccn2)CCN(CC(=O)O)CC1 [GdL3]', 'Kd', 51),
  ('O=C(O)CN1CCN(CCC(=O)NCCN(Cc2ccccn2)Cc2ccccn2)CCN(CC(=O)O)CCN(CC(=O)O)CC1 [GdL2]', 'Kd', 49),
  ('O=C(O)CN1CCN(CCC(=O)NCCN(CCc2ccccn2)Cc2ccccn2)CCN(CC(=O)O)CCN(CC(=O)O)CC1 [GdL5]', 'Kd', 54),
  ('O=C(O)CN1CCN(CC(=O)O)CCN(CC(=O)NCCN(Cc2ccccn2)Cc2ccccn2)CCN(CC(=O)O)CC1 [GdL1]', 'Kd', 48),
  ('O=C(O)CN1CCN(CC(=O)O)CCN(CC(=O)NCCN(CCc2ccccn2)Cc2ccccn2)CCN(CC(=O)O)CC1 [GdL4]', 'Kd', 55);
